assay: folding enthalpy; higher = less favourable; fluorescence melt of hairpins on a sequencing array, two-state fit; conditions: sodium 0.088 M
measuredEndpoint: folding enthalpy (kcal/mol)

INSERT INTO assay_data (biosequence, measuredendpoint, measuredresult) VALUES
  ('GGTACGTCGAAAGACACC (((..(((....))))))', 'folding enthalpy', -9.89),
  ('GGTATCGGAAACAATACC (((((.(....).)))))', 'folding enthalpy', -34.9),
  ('GCCAAGCGAAAGCCTAGC ((.(.((....)).).))', 'folding enthalpy', -9.82),
  ('GTGGGCGAAAGCCGCAC ((((((....))).)))', 'folding enthalpy', -13.8),
  ('GGAACCGAAAGGTCTCC ((((((....))).)))', 'folding enthalpy', -22.1),
  ('GCAGGGGGAAACCCTTGC (((.(((....))).)))', 'folding enthalpy', -30.8),
  ('GAGGAGCGAAAGCTGCTC (((.(((....))).)))', 'folding enthalpy', -34),
  ('GTAGCTCCGAAAGGATAC (((..(((....))))))', 'folding enthalpy', -14.6),
  ('GCGACAGGAAACTACCGC (((..((....))..)))', 'folding enthalpy', -20.5),
  ('GCTCCCGCGAAAGCGAGC (((..(((....))))))', 'folding enthalpy', -10.7),
  ('GCCAGGCGAAAGCTTCGC ((.(.((....)).).))', 'folding enthalpy', -8.82),
  ('GCCCGGCGAAAGCGTGGC (((..((....))..)))', 'folding enthalpy', -20.2),
  ('GCGGGCGAAAGCCCTCGC ((((((....)))..)))', 'folding enthalpy', -13.1),
  ('GAAGAACCGAAAGGTTTC (((..(((....))))))', 'folding enthalpy', -11.5),
  ('GATCATTCTGATGATC ((((((....))))))', 'folding enthalpy', -39.7),
  ('AGTTTGAAAAAACT (((((....)))))', 'folding enthalpy', -12.1),
  ('GGCCGCGAAAGCGTCGCC ((((((....)))..)))', 'folding enthalpy', -16.7),
  ('GCGGGCCCCGC ((((...))))', 'folding enthalpy', -22.2),
  ('GAAAATGGAAACGTTTTC (((((.(....).)))))', 'folding enthalpy', -32.3),
  ('GGAGATTCGAAAGAATCC (((..(((....))))))', 'folding enthalpy', -13.3),
  ('GCGAGTCATCGC ((((....))))', 'folding enthalpy', -24.8),
  ('GTGAACGAAAGTTCAC ((((((....))))))', 'folding enthalpy', -26),
  ('GCGATGTATCGC ((((....))))', 'folding enthalpy', -28.2),
  ('GCATTCGAAAGAAGATGC ((((((....)))..)))', 'folding enthalpy', -17.7),
  ('GCGGGAAGCCGC ((((....))))', 'folding enthalpy', -18.4),
  ('GATCACTTATGTGATC ((((((....))))))', 'folding enthalpy', -37.5);

Origin of values: the array DNA melting data of Ke et al. (doi:10.1101/2024.01.08.574731)
